- Tested on: Phosphatidylinositol 4,5-bisphosphate 3-kinase catalytic subunit delta isoform (Homo sapiens) (UniProt O00329)
- Sequence (whole entry): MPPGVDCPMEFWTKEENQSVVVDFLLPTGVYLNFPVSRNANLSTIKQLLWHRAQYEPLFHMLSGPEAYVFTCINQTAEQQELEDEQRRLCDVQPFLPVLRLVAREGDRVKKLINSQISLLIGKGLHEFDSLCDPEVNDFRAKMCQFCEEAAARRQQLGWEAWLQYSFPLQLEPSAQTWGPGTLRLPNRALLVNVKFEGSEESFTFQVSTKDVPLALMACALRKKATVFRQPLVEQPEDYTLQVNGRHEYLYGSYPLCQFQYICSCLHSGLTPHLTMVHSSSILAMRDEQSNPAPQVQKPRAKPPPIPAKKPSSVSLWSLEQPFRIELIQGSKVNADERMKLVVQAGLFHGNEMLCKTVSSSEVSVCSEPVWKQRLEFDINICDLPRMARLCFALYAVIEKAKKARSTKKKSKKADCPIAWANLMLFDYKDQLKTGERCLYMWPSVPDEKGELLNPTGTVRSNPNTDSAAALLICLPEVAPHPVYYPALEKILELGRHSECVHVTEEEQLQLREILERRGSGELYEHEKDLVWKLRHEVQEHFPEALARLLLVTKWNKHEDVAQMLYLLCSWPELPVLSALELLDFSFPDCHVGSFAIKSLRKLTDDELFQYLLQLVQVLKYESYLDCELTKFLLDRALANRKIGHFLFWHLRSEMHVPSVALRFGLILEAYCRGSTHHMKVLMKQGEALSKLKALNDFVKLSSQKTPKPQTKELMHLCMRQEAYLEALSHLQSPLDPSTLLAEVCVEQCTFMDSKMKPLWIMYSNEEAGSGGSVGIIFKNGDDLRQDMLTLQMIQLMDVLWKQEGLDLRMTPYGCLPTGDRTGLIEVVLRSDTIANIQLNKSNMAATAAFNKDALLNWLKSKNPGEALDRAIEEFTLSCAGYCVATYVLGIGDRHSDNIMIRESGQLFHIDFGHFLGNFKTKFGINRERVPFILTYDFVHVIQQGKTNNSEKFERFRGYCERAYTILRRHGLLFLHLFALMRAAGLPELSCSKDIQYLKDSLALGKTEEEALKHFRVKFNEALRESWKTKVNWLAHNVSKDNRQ
- Method notes: Inhibition of PI3Kdelta in human B-cells assessed as reduction in CD69 expression preincubated for 1 hr followed by IgM stimulation for 18 hrs by flow cytometry analysis
- Assay type: cell-based
- Test settings: B-cell
Label class 1 when IC90 is strictly below 100 nM; at or above that, label class 0.

Exercise: Consider the molecule `CC(C)n1ncnc1-c1cn2c(n1)-c1ccc(O[C@@H](C)C(N)=O)cc1OCC2` . Is its IC90 strictly less than 100 nM?
Solution: class 0

Exercise: Next record, please: `C[C@H](Nc1ccc2c(c1)OCCn1cc(N3C(=O)OC[C@H]3C(F)F)nc1-2)C(N)=O`
Solution: class 0

Exercise: Would you mind doing `NC(=O)[C@@H](Nc1ccc2c(c1)OCCn1cc(N3C(=O)OC[C@H]3C(F)F)nc1-2)C1CC1` as well?
Solution: class 0

Exercise: Note, next up: `Cc1nc(-c2cn3c(n2)-c2ccc(-c4cnn(C(C)(C)C(N)=O)c4)cc2OCC3)n(C(C)C)n1`
Solution: class 1
